System: NIH3T3
Test: Cytotoxic Profiling of Annotated Libraries Using Quantitative High-Throughput Screening (AID 1296008); further: on the % scale 0 is the no-effect control and ±100 the full control effect; nearly all actives have a fitted effect of over 60% in size
Conditions: Five cell lines viability, CellTiter-Glo ATP luminescence, 48-72 h; active compounds read low
Records with an inconclusive call do not appear.
property: max response (%)

{"compound": "COc1ccc(C#Cc2ccc(C(=O)N3CCC[C@@H](CO)C3)cc2)cc1", "property": "max response", "assay_value": -25.7}
{"compound": "CC(=O)OC1C(O)CC2(C)C(CCC3(C)C2CC=C2C4C5(CCC(CO[C@@H]6O[C@H](CO)[C@@H](O)[C@H](O)[C@H]6O)(OC5=O)C4(C)O)C(O)CC23C)C1(C)C (some centres not stated)", "property": "max response", "assay_value": 2.97}
{"compound": "COc1cc(C[C@H]2C(=O)OC[C@@H]2Cc2ccc(OC)c(OC)c2)ccc1O", "property": "max response", "assay_value": -24.5}
{"compound": "CC12CCC3C1C(c1c(cc(O)c(C(=O)c4ccccc4)c1O)O2)C3(C)C (configuration not stated)", "property": "max response", "assay_value": -2.16}
{"compound": "CC(C)(C)OC(=O)c1ncn2c1C(C)(C)Nc1ccccc1-2", "property": "max response", "assay_value": 0.0612}
{"compound": "C[C@@H]1O[C@@H](O[C@H]2[C@H](O[C@H]3CC[C@@]4(C)C(CC[C@]5(C)C4C=C[C@]46OC[C@@]7(CCC(C)(C)C[C@H]74)[C@@H](O[C@@H]4O[C@@H](C)[C@H](O)[C@@H](O)[C@H]4O)C[C@]65C)[C@]3(C)CO)O[C@H](CO)[C@@H](O)[C@@H]2O[C@@H]2O[C@H](CO)[C@@H](O)[C@H](O)[C@H]2O)[C@H](O)[C@H](O)[C@H]1O (some centres not stated)", "property": "max response", "assay_value": -25.1}
{"compound": "CC1OC(OC2C(O)COC(O[C@@H]3[C@@H](O)[C@@H](O)[C@H](OC4C(OC(=O)[C@]56CCC(C)(C)CC5C5=CCC7[C@@]8(C)C[C@H](O)[C@H](OC9OC(CO)C(O)C(O)C9O)[C@@](C)(CO)C8[C@H](O)C[C@@]7(C)[C@]5(C)CC6)OCC(O)C4O)O[C@H]3C)C2O)C(O)C(O)C1O (some centres not stated)", "property": "max response", "assay_value": 2.11}
{"compound": "Cc1c(C(=O)NCc2cccnc2)nn(-c2ccc(Cl)cc2Cl)c1-c1ccc(Cl)cc1", "property": "max response", "assay_value": -4.76}
{"compound": "C=CC(C)(O)CC/C=C(/C)COC(=O)C(C)C1CCC(C)(C=C)O1 (configuration not stated)", "property": "max response", "assay_value": 0.167}
{"compound": "O=C(NCCCN1CCOCC1)c1cnn2c(-c3ccccc3)cc(-c3ccccc3)nc12", "property": "max response", "assay_value": -12.1}
{"compound": "COc1cc(C2OC(c3ccc(OC)c(OC)c3)C(C)C2C)ccc1O (configuration not stated)", "property": "max response", "assay_value": -6.22}
{"compound": "O=C(NCc1nc2ccccc2c(=O)n1-c1ccc(F)cc1)Nc1ccc(Cl)c(C(F)(F)F)c1", "property": "max response", "assay_value": -1.1}
{"compound": "CC[C@@H](Nc1c(Nc2cccc(C(=O)N(C)C)c2O)c(=O)c1=O)c1cc(C(C)C)co1", "property": "max response", "assay_value": -6.94}
{"compound": "CC(C)C(C)C(O)C1CC23CC(=O)C4(O)C(=C2CCC3C1C)C=CC1(O)CC(O)CCC14C (configuration not stated)", "property": "max response", "assay_value": -0.33}
{"compound": "Nc1nc2c(cnn2CCCc2ccc(O)cc2)c2nc(-c3ccco3)nn12", "property": "max response", "assay_value": 3.84}
{"compound": "Cn1c(CO)c(-c2ccccc2)c2cc([N+](=O)[O-])ccc21", "property": "max response", "assay_value": -3.34}
{"compound": "CCOC(=O)C1(CCOc2ccccc2)CCN(Cc2ccc(O)c(Cl)c2)CC1", "property": "max response", "assay_value": -16.4}
{"compound": "CC(C)(CNC(=O)c1cccc(-c2noc(C(F)(F)F)n2)c1)c1coc(-c2ccccc2)n1", "property": "max response", "assay_value": 4.1}
{"compound": "CC1(C)CC[C@]2(C(=O)O)CC[C@]3(C)C(=CCC4[C@@]5(C)C[C@@H](O)[C@H](O)[C@@](C)(CO)C5CC[C@]43C)[C@@H]2[C@@H]1O (some centres not stated)", "property": "max response", "assay_value": 4.68}
{"compound": "O=C(NCC(=O)N1CCCC1)Nc1ccc2cnccc2c1", "property": "max response", "assay_value": -5.01}
{"compound": "C/C=C/C=C/C=C/C(=O)O[C@@H]1C=C(CO)C(O)(C(=O)OC)[C@@]2(C)CCCC(C)(C)C12 (some centres not stated)", "property": "max response", "assay_value": 4.09}
{"compound": "C=C1CC[C@@H]2[C@](C)(CO)[C@H](O)CC[C@@]2(C)[C@@H]1/C=C/C1=CCOC1=O", "property": "max response", "assay_value": -1.38}
{"compound": "C=C1CCC[C@]2(C)CC/C(=C(/CO)C(=O)OC)C[C@@H]12", "property": "max response", "assay_value": 2.53}
{"compound": "CNC(=O)COC(=O)N1CCC(CCc2ccc(Cl)cc2)CC1", "property": "max response", "assay_value": -13}
{"compound": "Cc1ccc(C)c(NC(=O)[C@@H]2CCCN2S(=O)(=O)c2cccc3cccnc23)c1", "property": "max response", "assay_value": -29.5}
{"compound": "O=C(COc1ccc2ccccc2c1Br)Nc1cccnc1", "property": "max response", "assay_value": -5.04}
{"compound": "CCc1cccc(CC)c1-n1c(C=C(C)C)c(C(=O)N2CCNCC2)cc(-c2nc(-c3ccc(C(F)(F)F)cc3)cs2)c1=O", "property": "max response", "assay_value": -4.22}
{"compound": "C=CCC1=C[C@]2(OC)[C@H](C)[C@@H](c3ccc4c(c3)OCO4)O[C@]2(OC)CC1=O", "property": "max response", "assay_value": 1.18}
{"compound": "CC(=O)O[C@@H]1C[C@@]23C[C@@]24CC[C@H](O[C@@H]2OC[C@H](O)[C@H](O)[C@H]2O)C(C)(C)[C@@H]4CC[C@H]3[C@]2(C)[C@@H](O)C34O[C@H](C[C@@H](C)[C@@H]3[C@@]12C)[C@@H](C(C)(C)O)O4", "property": "max response", "assay_value": 2.71}
{"compound": "COc1ccc(S(=O)(=O)Nc2c(C)cc(C)cc2C)cc1", "property": "max response", "assay_value": 0.769}
{"compound": "CC1(C)CCC2(C(=O)OC3OC(COC4OC(CO)C(O)C(O)C4O)C(O)C(O)C3O)CCC3(C)C(=CCC4C5(C)CCC(OC6OCC(O)C(O)C6O)C(C)(C)C5CCC43C)C2C1O (configuration not stated)", "property": "max response", "assay_value": -18.4}
{"compound": "OC(CC1c2ccccc2-c2cncn21)C1CCCCC1 (configuration not stated)", "property": "max response", "assay_value": -17.5}
